# Protocol text: qHTS drug screen for cell cycle checkpoint inhibitors in PARPi-resistant BRCA-mutant ovarian cancer cell lines. (AID 1963452)
# Experimental conditions: PEO1/OlaR viability, CellTiter-Glo luminescence, 96 h; measured here: PEO1 parental Z-AUC; stronger effect = lower value
Lab note: compare Z-AUC with -0.9, writing 1.0 if less and 0.0 if equal or more.

C[C@H](Nc1ncnc2nc[nH]c12)c1cc2ccc(F)cc2nc1-c1ccccn1 : 0.0
CNCc1ccc(-c2cc(-c3nc(-c4ccc(S(=O)(=O)C(C)C)cc4)cnc3N)on2)cc1 : 0.0
c1cn2cc(-c3ccc4cn[nH]c4c3)nc(Nc3ccc(N4CCOCC4)cc3)c2n1 : 0.0
CC[C@@](C)(Nc1ccnc(-c2c[nH]c3ncccc23)n1)C(=O)NCC(F)(F)F : 0.0
Cc1cc(Nc2cc(N3CCN(C)CC3)nc(/C=C/c3ccccc3)n2)n[nH]1 : 1.0
Cc1ccc(S(=O)(=O)Cc2nc(-c3ccc(C(=O)NCc4cccnc4)cc3)oc2C)cc1 : 1.0
Cc1cc(O)c(-c2ccc([C@@H](C)CN(C)C)cc2)c2c1[nH]c(=O)c1sccc12 : 1.0

###

# Test system: CASKI
# Protocol text: Primary qHTS to identify gynecologic anti-cancer compounds using libraries of approved drugs and bioactive compounds (AID 1345084); note: nearly all actives have a fitted effect of over 55% in size
# Experimental conditions: Gynecologic cancer cell panel viability, ATPlite luminescence, 48 h; series mostly up to 57.5 µM
Records with an inconclusive call do not appear. Calls of active or inactive are those of the source. The call rests on the fitted dose curve; in most records, active means well fitted cell-killing curve with a large enough effect; inconclusive means small, poorly fitted or top-dose-only effect, or effect the other way; inactive means flat fitted curve, though single readings scatter.
Labels: active, inactive

O=C(/C=C/c1ccc(O)cc1)OC1[C@H](O)CC(O)(C(=O)O)C[C@H]1O (stereo partly drawn) : inactive
CC(C)=CCCC1(C)C=Cc2c(c(C)cc3c2[nH]c2ccccc23)O1 (stereo not drawn) : inactive
C/C1=C\CC[C@]2(C)O[C@@H]2[C@H](O)[C@H](C(C)C)[C@H](OC(=O)/C=C/c2ccccc2)C1 : inactive
COc1cc(OC)cc(C(=O)Nc2ccc(Cl)c(-c3nc4ccc(N(C)C)cc4[nH]3)c2)c1 : inactive
CC(C)(O[C@@H]1O[C@H](CO)[C@@H](O)[C@H](O)[C@H]1O)C(OC(=O)/C=C\c1ccc(O)cc1)C(=O)OCc1ccc(O[C@@H]2O[C@H](CO)[C@@H](O)[C@H](O)[C@H]2O)cc1 (stereo partly drawn) : inactive
CN1CCN(C2CCC(n3cc(-c4ccc(Oc5ccccc5)cc4)c4c(N)ncnc43)CC2)CC1 (stereo not drawn) : active
CCN(CC)Cc1ccc(C(=O)N(CCc2ccccc2OC)[C@@H]2CCNC2)cc1 : inactive
COC(=O)[C@@]1(c2ccc(C)cc2)C[C@H]1CN1CCC(O)(c2ccccc2)CC1 : inactive
C[C@@H]1C(=O)OC[C@H]2C(C(=O)O)=C[C@@H]3CC(C)(C)C[C@]312 : inactive
CCC1C(=O)OC23C=C[C@@H]4C(C(=O)O)=CO[C@H](O[C@@H]12)[C@@H]43 (stereo partly drawn) : inactive
Cc1cccc2c1NC(=O)C2(c1ccc(O)cc1)c1ccc(O)cc1 : inactive
CC(=O)O[C@@H]1[C@@H](OC(=O)/C=C/c2ccccc2)[C@@H](OC(C)=O)[C@H](O[C@H]2[C@@H]3C=CO[C@@H](O[C@@H]4O[C@H](CO)[C@@H](O)[C@H](O)[C@H]4O)[C@@H]3[C@@]3(CO)O[C@@H]23)O[C@H]1C : inactive
CCOc1ccc(S(=O)(=O)n2c(C)nc3ccccc32)cc1 : inactive
COC1=CC(=O)CC(C)C12Oc1cc(OC)cc(O)c1C2=O (stereo not drawn) : inactive
C[C@@H]1O[C@@H](OC[C@H]2O[C@@H](Oc3cc(O)cc4c3C(=O)C(O)(Cc3ccc(O)cc3)O4)[C@H](O)[C@@H](O)[C@@H]2O)[C@H](O)[C@H](O)[C@H]1O (stereo partly drawn) : inactive
CCOC(=O)c1cc(C#N)c(N2CCC(C(=O)NS(=O)(=O)Cc3ccccc3)CC2)nc1C : inactive
C=C1CC[C@@H]2[C@](C)(CO[C@@H]3O[C@H](CO)[C@@H](O)[C@H](O)[C@H]3O)[C@H](O)CC[C@@]2(C)[C@@H]1C/C=C1/C(=O)OC[C@H]1O : inactive
CC(=O)C=C=C1C(C)(C)CC(O[C@@H]2O[C@H](CO)[C@@H](O)[C@H](O)[C@H]2O)CC1(C)O (stereo partly drawn) : inactive
C=C1CCC[C@]2(C)CC[C@@H](C(=C)C(=O)O)[C@H](O)[C@@H]12 : inactive
O=C1Nc2ccccc2C(O)(c2ccccc2)C1O (stereo not drawn) : inactive
Cc1cc(Nc2nc(NC(C)c3ncc(F)cn3)ncc2Cl)n[nH]1 (stereo not drawn) : inactive
C=C1C[C@]23C[C@H]1CC[C@H]2[C@@]12CC[C@H](O)[C@@](C)(C(=O)O1)[C@H]2[C@@H]3C(=O)O : inactive
CC1(C)C=CN2C(=O)C3=CCCN3C(=O)[C@@H]2C[C@@]12Nc1ccccc1C2=O : inactive
O=C(O[C@H]1[C@@H]2C=CO[C@@H](O[C@@H]3O[C@H](CO)[C@@H](O)[C@H](O)[C@H]3O)[C@@H]2[C@@]2(CO)O[C@@H]12)c1ccccc1 : inactive
CC(C)c1c2cc(-c3ccnc(NC4CCC(NC5CCOCC5)CC4)n3)ccc2nn1C (stereo not drawn) : active
Cc1cc(=O)oc2c(C=O)c(O)ccc12 : inactive
CC(C)(C(=O)NCC(F)(F)C(F)(F)F)C(=O)NC1C(=O)Nc2ccccc2-c2ccccc21 (stereo not drawn) : inactive
CC(=O)OC/C=C(\C)C(CC1C(C)=C(OC(C)=O)C(=O)C2C(C)(C)C(O)CCC12C)OC(C)=O (stereo not drawn) : inactive
CN(CCc1ccc(Nc2ncc(-c3cccnc3)s2)cc1)Cc1ccccc1 : inactive
CC12CCC(OC3OC(CO)C(O)C(OC4OC(CO)C(O)C(O)C4O)C3O)CC1=CCC1C2CCC2(C)/C(=C3/COC(=O)C3)CCC12O (stereo not drawn) : inactive
N#C[C@@H]1CCCN1C(=O)CNC12CC3CC(CC(O)(C3)C1)C2 : inactive
CC1CCC2(OC1)OC1CC3C4CCC5C[C@@H](O[C@@H]6O[C@H](CO[C@@H]7OC[C@@H](O)[C@H](O)[C@H]7O)[C@H](O)[C@H](O)[C@H]6O)CC[C@]5(C)C4CC[C@]3(C)C1C2C (stereo partly drawn) : inactive
COc1ccc(CN2C(=O)C(=O)c3cc(S(=O)(=O)N4CCC[C@H]4COc4cccnc4)ccc32)cc1 : inactive

###

# Protocol text: Primary qHTS for inhibitors of nuclear receptor binding SET domain protein 2 (NSD2) in an isogenic RCH-ACV NSD2 p.E1099K mutant (9B) (AID 1645876); note: nearly all actives have a fitted effect of over 70% in size
# Experimental conditions: RCH-ACV (leukaemia line) NSD2 E1099K (9B) viability, CellTiter-Glo, 72 h; series mostly up to 44.9 µM
Inconclusive results are not listed. The source made the active and inactive calls. The call rests on the fitted dose curve; in most records, active means well fitted inhibition curve with a large enough effect; inconclusive means small, poorly fitted or top-dose-only effect; inactive means flat fitted curve, though single readings scatter.
Labels: label 1 (active), label 0 (inactive)

CC1C(OC(=O)c2ccccc2)C(O)C2C(C(=O)O)=COC(OC3OC(CO)C(O)C(O)C3O)C12 (stereo not drawn) : label 0
O=C(c1ccc2nccnc2c1)N1CCCCC1 : label 0
COc1ccc(C2=N[C@@H](c3ccc(Cl)cc3)[C@@H](c3ccc(Cl)cc3)N2C(=O)N2CCNC(=O)C2)c(OC(C)C)c1 : label 1
Nc1nc(Nc2ccc(S(N)(=O)=O)cc2)n(C(=S)Nc2c(F)cccc2F)n1 : label 0
CC(C)c1nnc(-c2ccc(-c3ccccc3)nc2)n1-c1cccc2nonc12 : label 0
O=S(=O)(c1ccc(S(=O)(=O)n2cnc3ccccc32)cc1)N1CCCCCC1 : label 0
CCOc1cc(CC(=O)NC(CC(C)C)c2ccccc2N2CCCCC2)ccc1C(=O)O (stereo not drawn) : label 0
CC1COC2(OC3CC4C5CC(O[C@@H]6O[C@H](C)[C@@H](O[C@@H]7O[C@@H](C)[C@H](O)[C@@H](O)[C@H]7O)[C@H](O)[C@H]6O)C6CC(O)CCC6(C)C5CCC4(C)C3C2C)C(O)C1 (stereo partly drawn) : label 0
COc1c2c(c(C)c3c1C(=O)OC3)O[C@@]1(C)CCC3(C(C)(C)O)OC(=O)CC[C@]3(C)[C@H]1C2 (stereo partly drawn) : label 0
CC(=O)O[C@@H]1[C@@H](CO)O[C@@](CO)(O[C@H]2O[C@H](COC(=O)/C=C/c3ccccc3)[C@@H](O)[C@H](O)[C@H]2O)[C@H]1O : label 0
CC(C)[C@H]1CC[C@@]2(O)COC(=O)[C@H]2[C@@H]1/C=C(\CO)C(=O)O : label 0
C(#Cc1nc2ncccc2nc1OCCN1CCCC1)c1ccccc1 : label 1
CCC(COC)n1nnc2c(Nc3ccc(OC)cc3C)nc(C)cc21 (stereo not drawn) : label 0
CC(O)/C=C/C1OC(=O)CC1Nc1ccc(C(=O)O)cc1 (stereo not drawn) : label 0
CC(=O)OC[C@@]12C(=O)C[C@@H](C)[C@]3(C[C@@H](c4ccoc4)O[C@H]3OC(C)=O)[C@H]1CCC[C@]21CO1 : label 1
O=S(=O)(NCC1CC1)c1ccc(Nc2nccc(N3CCCc4cc(O)ccc43)n2)cc1 : label 1
CC(C)=CCC(O)/C(C)=C/CO[C@@H]1O[C@H](CO)[C@@H](O)[C@H](O)[C@H]1O (stereo partly drawn) : label 0
COC(=O)CCC(=O)OC[C@]1(C)CCC[C@@]2(C)C3CC[C@]4(C)C=CC3(CCC12)C4 (stereo partly drawn) : label 0
